Each recorded value in this set is attributed to patent US20220402948A1.

systemUnderTest: Ba/F3-EGFR wild-type cell line (Homo sapiens)
Sequence (P00533 whole entry, change not shown): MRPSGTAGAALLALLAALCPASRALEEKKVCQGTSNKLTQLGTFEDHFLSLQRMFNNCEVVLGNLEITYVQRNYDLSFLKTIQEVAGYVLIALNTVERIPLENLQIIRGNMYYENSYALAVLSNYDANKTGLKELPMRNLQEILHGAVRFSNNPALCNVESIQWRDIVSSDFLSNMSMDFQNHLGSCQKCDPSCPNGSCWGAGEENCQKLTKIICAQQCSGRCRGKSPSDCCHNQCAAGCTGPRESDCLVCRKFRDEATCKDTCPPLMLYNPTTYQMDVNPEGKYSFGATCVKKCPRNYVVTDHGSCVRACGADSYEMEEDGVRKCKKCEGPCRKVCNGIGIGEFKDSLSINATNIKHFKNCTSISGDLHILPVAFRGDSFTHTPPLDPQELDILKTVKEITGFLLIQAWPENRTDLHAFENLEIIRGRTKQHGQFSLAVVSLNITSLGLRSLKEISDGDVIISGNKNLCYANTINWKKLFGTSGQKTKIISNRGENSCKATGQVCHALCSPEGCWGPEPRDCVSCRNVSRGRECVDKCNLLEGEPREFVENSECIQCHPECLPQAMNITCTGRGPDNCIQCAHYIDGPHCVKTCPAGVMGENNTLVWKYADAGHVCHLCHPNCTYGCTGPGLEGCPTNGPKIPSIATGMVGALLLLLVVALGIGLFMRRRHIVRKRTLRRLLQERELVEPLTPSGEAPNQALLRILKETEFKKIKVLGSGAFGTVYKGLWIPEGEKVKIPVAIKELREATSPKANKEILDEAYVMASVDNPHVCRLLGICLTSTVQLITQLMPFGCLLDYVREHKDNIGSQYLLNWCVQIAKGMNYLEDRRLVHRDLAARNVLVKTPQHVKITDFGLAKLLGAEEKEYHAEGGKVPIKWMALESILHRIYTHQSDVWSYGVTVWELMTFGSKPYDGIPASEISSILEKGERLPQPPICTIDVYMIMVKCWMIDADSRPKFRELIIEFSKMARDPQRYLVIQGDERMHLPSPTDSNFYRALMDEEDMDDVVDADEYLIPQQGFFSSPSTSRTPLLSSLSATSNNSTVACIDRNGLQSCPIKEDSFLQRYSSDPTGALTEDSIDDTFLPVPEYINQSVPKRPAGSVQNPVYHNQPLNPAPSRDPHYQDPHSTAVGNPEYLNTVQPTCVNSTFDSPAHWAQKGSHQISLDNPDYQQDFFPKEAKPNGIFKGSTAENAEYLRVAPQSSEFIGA
assayRemarks: Ba/F3-EGFR wild-type cell proliferation assay (CellTiter Glo, 72 hours)
Type: cell-based
particulars: Table 2, read-out: EGFR WT IC50
Each record is given Y if its reported GI50 is strictly below 200 nM. Records at or above 200 nM are given N.

Could you please tell me whether GI50 recorded for CCc1cc(Nc2ncc(Br)c(Nc3ccc(-c4ccc(OC)cn4)cc3P(C)(C)=O)n2)c(OC)cc1N1CCC(N2CCN(C)CC2)CC1 is less than 200 nM?
N

Could you please tell me whether GI50 recorded for CCc1cc(Nc2ncc(Br)c(Nc3ccc(-c4cnccn4)cc3P(C)(C)=O)n2)c(OC)cc1N1CCC(N2CCN(C)CC2)CC1 is less than 200 nM?
Y

Could you please tell me whether GI50 recorded for COc1cc(Nc2ncc(Br)c(Nc3ccc(-c4cnn(C)n4)cc3P(C)(C)=O)n2)c(C)cc1N1CCOCC1 is less than 200 nM?
Y

Could you please tell me whether GI50 recorded for CCc1cc(Nc2ncc(Br)c(Nc3ccc(-c4cnn(C)c4)cc3P(C)(C)=O)n2)c(OC)cc1N1CCC(N2CCN(C)CC2)CC1 is less than 200 nM?
Y

Could you please tell me whether GI50 recorded for COc1cnn(-c2ccc(Nc3nc(Nc4cc(OC)c(N5CCOCC5)cc4C4CC4)ncc3Br)c(P(C)(C)=O)c2)c1 is less than 200 nM?
N

###

systemUnderTest: EGFRΔ19del/T790M/C797S (Homo sapiens, UniProt P00533, T790M/C797S, form not given)
Sequence (P00533 with tags, fused parts or gaps DEL746-750/T790M/C797S, form open): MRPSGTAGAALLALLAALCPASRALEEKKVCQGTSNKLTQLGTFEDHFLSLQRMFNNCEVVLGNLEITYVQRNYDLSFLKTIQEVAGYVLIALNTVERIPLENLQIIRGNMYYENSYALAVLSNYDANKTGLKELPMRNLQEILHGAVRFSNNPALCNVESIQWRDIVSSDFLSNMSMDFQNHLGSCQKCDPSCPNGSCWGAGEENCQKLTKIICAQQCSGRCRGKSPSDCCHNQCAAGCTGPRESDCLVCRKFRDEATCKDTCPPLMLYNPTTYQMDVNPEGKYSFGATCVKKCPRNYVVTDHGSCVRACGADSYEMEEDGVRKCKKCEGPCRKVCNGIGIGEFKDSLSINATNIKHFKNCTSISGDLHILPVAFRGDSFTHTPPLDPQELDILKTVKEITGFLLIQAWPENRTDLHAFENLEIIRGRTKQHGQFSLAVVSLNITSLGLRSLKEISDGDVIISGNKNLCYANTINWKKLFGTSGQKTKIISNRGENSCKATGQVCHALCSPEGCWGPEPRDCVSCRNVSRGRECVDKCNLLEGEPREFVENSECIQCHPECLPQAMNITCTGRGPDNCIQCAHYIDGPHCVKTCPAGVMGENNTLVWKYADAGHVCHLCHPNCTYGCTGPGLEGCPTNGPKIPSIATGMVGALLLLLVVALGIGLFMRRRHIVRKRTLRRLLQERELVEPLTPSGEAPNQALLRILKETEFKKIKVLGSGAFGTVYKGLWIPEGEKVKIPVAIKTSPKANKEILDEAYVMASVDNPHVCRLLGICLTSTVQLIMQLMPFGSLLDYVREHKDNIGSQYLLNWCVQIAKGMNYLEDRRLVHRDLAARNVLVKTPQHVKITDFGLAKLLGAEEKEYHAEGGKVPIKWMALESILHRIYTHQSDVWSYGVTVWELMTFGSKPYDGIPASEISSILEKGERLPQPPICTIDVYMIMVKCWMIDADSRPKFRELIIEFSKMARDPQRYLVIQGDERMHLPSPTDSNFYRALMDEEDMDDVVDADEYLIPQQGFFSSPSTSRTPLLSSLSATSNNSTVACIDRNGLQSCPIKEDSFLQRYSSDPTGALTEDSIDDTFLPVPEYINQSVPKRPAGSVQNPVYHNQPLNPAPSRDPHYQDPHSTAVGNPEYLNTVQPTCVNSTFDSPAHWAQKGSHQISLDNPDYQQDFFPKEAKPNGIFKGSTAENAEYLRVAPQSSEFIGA
assayRemarks: EGFR Δ19del/T790M/C797S kinase test (mobility variation analysis, Caliper EZ Reader)
particulars: kinase enzymatic activity, Table 1
pIC50: −log10 of the molar value.
Binary call on pIC50: true from 9 upward, false beneath that.

Form field: pIC50 at least 9? Entry: CCc1cc(Nc2ncc(Br)c(Nc3ccc(-c4cnc(N(C)C)cn4)cc3P(C)(C)=O)n2)c(OC)cc1N1CCC(N2CCN(C)CC2)CC1
true

Form field: pIC50 at least 9? Entry: C#Cc1ccc(-c2ccc(Nc3nc(Nc4cc(C)c(N5CCC(N6CCN(C)CC6)CC5)cc4OC)ncc3Br)c(P(C)(C)=O)c2)s1
true

Form field: pIC50 at least 9? Entry: COc1cnn(-c2ccc(Nc3nc(Nc4cc(OC)c(N5CCC(O)CC5)cc4C)ncc3Br)c(P(C)(C)=O)c2)c1
true

Form field: pIC50 at least 9? Entry: CCOc1noc(C)c1-c1ccc(Nc2nc(Nc3cc(CC)c(N4CCC(N5CCN(C)CC5)CC4)cc3OC)ncc2Cl)c(P(C)(C)=O)c1
false

###

Would you mind telling me the reported pIC50 of each entry?
systemUnderTest: IGF1R (Homo sapiens, UniProt P08069)
Sequence (P08069 31-1367, species assumed): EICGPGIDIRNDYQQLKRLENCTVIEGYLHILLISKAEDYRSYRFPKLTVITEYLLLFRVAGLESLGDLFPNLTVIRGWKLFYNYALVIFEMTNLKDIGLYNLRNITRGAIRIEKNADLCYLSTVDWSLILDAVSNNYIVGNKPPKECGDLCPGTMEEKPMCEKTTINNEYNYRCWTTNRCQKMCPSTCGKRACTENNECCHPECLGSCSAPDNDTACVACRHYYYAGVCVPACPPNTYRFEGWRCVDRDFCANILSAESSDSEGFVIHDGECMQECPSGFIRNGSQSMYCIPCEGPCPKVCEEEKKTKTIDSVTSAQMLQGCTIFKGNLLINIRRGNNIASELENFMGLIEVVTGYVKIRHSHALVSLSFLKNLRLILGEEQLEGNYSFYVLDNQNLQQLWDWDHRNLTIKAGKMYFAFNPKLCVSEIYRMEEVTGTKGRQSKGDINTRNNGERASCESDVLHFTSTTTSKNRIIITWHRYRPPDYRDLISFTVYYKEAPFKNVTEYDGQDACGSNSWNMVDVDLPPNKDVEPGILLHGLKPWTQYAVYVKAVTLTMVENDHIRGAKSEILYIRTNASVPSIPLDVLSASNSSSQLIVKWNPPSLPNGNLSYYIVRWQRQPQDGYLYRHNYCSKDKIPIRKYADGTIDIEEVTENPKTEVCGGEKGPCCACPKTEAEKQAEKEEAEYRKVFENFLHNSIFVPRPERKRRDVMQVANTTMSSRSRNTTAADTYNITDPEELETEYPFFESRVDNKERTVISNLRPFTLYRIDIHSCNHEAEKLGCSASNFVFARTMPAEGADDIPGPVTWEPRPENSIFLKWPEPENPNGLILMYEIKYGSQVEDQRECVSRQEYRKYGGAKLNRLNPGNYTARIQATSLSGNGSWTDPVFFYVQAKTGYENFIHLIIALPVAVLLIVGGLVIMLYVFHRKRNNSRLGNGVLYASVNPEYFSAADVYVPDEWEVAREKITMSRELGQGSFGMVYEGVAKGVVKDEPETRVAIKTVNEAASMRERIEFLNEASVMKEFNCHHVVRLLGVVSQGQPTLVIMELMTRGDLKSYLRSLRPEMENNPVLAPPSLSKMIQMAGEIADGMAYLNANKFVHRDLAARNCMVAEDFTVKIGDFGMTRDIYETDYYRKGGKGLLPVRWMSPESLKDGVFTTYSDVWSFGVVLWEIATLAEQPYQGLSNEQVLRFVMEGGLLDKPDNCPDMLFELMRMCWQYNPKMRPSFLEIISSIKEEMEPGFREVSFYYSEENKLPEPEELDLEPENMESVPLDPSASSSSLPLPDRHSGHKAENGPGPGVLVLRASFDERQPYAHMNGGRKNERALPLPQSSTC
assayRemarks: IGF1R kinase test (mobility variation analysis, Caliper EZ Reader)
Format: biochemical
particulars: kinase enzymatic activity, Table 1; read-out: EGFR IGF1R IC50
Experimental: Mobility variation analysis was performed to determine the affinity of the compound for EGFRΔ19del/T790M/C797S, EGFR WT and IGF1R. The enzymatic reaction scheme is as follows: 1. Prepare 1*kinase buffer as follows. 2. […] 10. Read conversion rate with Caliper EZ Reader. […]
Interpret pIC50 as the negative base-10 log of the concentration measured in mol/L.

Supply pIC50 value. Item: COc1cc(Nc2ncc(Br)c(Nc3ccc(-c4nccs4)cc3P(C)(C)=O)n2)c(C)cc1N1CCC(N2CCN(C)CC2)CC1
7.48

Supply pIC50 value. Item: C#Cc1cnn(-c2ccc(Nc3nc(Nc4cc(CC)c(N5CCC(N6CCN(C)CC6)CC5)cc4OC)ncc3Br)c(P(C)(C)=O)c2)c1
6.78

Supply pIC50 value. Item: COc1cc(N2CCC(N3CCN(C)CC3)CC2)ccc1Nc1ncc(Cl)c(Nc2ccc(C)cc2P(C)(C)=O)n1 [compound 1, reference compound]
7.36
